# study target: UniProt:P19793
# Sequence (P19793 whole entry): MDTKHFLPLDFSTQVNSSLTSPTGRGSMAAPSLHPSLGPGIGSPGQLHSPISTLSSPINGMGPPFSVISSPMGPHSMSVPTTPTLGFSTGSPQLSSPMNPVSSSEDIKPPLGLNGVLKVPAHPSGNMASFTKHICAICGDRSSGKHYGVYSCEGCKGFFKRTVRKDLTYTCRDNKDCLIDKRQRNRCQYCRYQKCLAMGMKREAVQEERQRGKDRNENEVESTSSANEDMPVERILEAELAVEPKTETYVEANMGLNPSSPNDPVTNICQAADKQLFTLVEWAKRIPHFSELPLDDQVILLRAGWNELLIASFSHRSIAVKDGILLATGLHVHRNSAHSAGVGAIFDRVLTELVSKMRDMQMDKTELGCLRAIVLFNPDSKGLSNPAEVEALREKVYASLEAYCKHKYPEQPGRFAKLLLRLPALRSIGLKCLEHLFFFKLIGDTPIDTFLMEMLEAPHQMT
# assay notes: Antagonist activity for Retinoic X receptor alpha in CV1 cells
pIC50: −log10 of the molar value.
measurement label: pIC50

Some solved entries appear below for comparison.
{"smiles text": "C/C(=C(/F)C(=O)O)c1cc2cccc(-c3cc(C(C)C)cc(C(C)C)c3OCC(F)F)c2o1", "pIC50": 7.66}
{"smiles text": "CCCCOc1c(-c2cccc3cc(/C(C)=C(\\F)C(=O)O)oc23)cc(C(C)C)cc1C(C)C", "pIC50": 7.96}
{"smiles text": "C/C(=C\\C(=O)O)c1cc2c(-c3cc(C(C)(C)C)cc(C(C)(C)C)c3OCC(F)(F)F)cccc2s1", "pIC50": 7.85}
{"smiles text": "C/C(=C\\C(=O)O)c1cc2c(-c3cc(C(C)(C)C)cc(C(C)(C)C)c3OCC(F)F)cccc2s1", "pIC50": 7.62}

1: CCCCCCCOc1c(-c2cccc3sc(/C(C)=C/C(=O)O)cc23)cc(C(C)(C)C)cc1C(C)(C)C
2: C/C(=C\C(=O)O)c1cc2c(-c3cc(C(C)(C)C)cc(C(C)(C)C)c3OCCCF)cccc2s1
3: C/C(=C\C(=O)O)c1cc2cccc(-c3cc(C(C)C)cc(C(C)C)c3OCC(F)(F)F)c2o1
Task: Put these in order: smallest pIC50 first, largest last. A complete answer lists every label in the requested sequence.
Result: 3, 1, 2
